- Test system: Staphylococcus aureus
- TEST SUMMARY: Mutant prevention concentration (MPC) against Staphylococcus aureus
- Assay type: cell-based
- CONDITION SET: window index

| CHEM SMILES | WI (MPC/MIC) |
| --- | --- |
| NC[C@H]1O[C@H](O[C@H]2[C@H](O)[C@@H](O[C@H]3O[C@H](CO)[C@@H](O)[C@H](N)[C@H]3O)[C@H](N)C[C@@H]2N)[C@H](N)C[C@@H]1O | 74 |
| CN[C@H](CC(C)C)C(=O)N[C@H]1C(=O)N[C@@H](CC(N)=O)C(=O)N[C@H]2C(=O)N[C@H]3C(=O)N[C@H](C(=O)N[C@H](C(=O)O)c4cc(O)cc(O)c4-c4cc3ccc4O)[C@H](O)c3ccc(c(Cl)c3)Oc3cc2cc(c3O[C@@H]2O[C@H](CO)[C@@H](O)[C@H](O)[C@H]2O[C@H]2C[C@](C)(N)[C@H](O)[C@H](C)O2)Oc2ccc(cc2Cl)[C@H]1O | 61 |
| O=C(N[C@H](CO)[C@H](O)c1ccc([N+](=O)[O-])cc1)C(Cl)Cl | 21 |
| CCn1cc(C(=O)O)c(=O)c2cc(F)c(N3CCNCC3)cc21 | 26 |
